# experimental.target: T1, hIL-4Rα on cells (human, UniProt P24394 26-825)
# T1 sequence: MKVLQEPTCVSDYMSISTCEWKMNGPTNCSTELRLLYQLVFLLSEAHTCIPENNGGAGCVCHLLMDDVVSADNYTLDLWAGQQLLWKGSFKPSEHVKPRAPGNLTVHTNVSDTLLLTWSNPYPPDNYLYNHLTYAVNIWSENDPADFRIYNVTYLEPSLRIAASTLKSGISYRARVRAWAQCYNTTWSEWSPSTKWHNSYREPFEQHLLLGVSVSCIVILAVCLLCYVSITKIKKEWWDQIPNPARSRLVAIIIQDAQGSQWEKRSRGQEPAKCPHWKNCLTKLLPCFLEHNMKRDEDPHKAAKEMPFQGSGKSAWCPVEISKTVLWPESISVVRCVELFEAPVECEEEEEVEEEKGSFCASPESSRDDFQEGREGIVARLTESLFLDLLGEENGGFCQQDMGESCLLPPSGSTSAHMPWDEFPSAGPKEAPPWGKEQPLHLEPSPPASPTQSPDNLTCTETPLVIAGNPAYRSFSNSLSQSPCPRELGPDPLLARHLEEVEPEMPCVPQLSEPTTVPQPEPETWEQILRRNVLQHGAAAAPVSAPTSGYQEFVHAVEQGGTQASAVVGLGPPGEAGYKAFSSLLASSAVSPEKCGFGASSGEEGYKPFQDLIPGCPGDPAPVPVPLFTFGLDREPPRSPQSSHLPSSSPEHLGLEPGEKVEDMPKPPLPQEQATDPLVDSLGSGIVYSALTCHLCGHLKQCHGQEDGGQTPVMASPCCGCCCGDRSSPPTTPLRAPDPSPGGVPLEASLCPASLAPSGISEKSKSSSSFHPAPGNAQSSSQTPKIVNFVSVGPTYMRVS
# assay.method.text: FACS on HEK293 cells, competitor biotin-hIL-13;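 also: stably transduced cells co-expressing both receptor chains, stained cold, with cell-bound signal read as mean fluorescence intensity by flow cytometry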

- binder: "Construct 18 (mAb426) (antibody, IgG4, V domains shown, VH/VL only) VH: EVQLVESGGGLEQPGGSLRLSCAGSGFTFRDFAMTWVRQAPGKGLEWVSSISGSGDNTYYADSVKGRFTISRDNSKNTLYLQMNSLRAEDTAVYYCAKDRLSKTIRPRYYGLDVWGQGTTVTVSS VL: DIVMTQSPLSLPVTPGEPASISCTSSQSLLYSIGKNYVDWYLQKSGQSPQLLIYLGNKRASGVPDRFSGSGSGTDFTLKISRVEAEDVGFYYCMQSLTSPYTFGQGTKLEIK"
  Relative Blockade of IL-13 Binding IC50: "0.813 relative to dupilumab"
- binder: "Construct 40 (mAb476) (antibody, IgG4, V domains shown, VH/VL only) VH: EVQLVESGGGLEQPGGSLRLSCAGSGFTFRDFAMTWVRQAPGKGLEWVSSVSGDGGNTYYADSVKGRFTISRDNSKNTLYLQMNSLRAEDTAVYYCAKDRLSKTIRPRYYGLDVWGQGTTVTVSS VL: DIVMTQSPLSLPVTPGEPASISCRSSQSVLYSIGYNYVDWYLQKSGQSPQLLIYLGNKRASGVPDRFSGSGSGTDFTLKISRVEAEDVGFYYCMQAYQSPYVFGQGTKLEIK"
  Relative Blockade of IL-13 Binding IC50: "1.19 relative to dupilumab"
- binder: "Construct 32 (mAb446) (antibody, IgG4, V domains shown, VH/VL only) VH: EVQLVESGGGLEQPGGSLRLSCAGSGFTFRDFAMTWVRQAPGKGLEWVSSVSGDGGNTYYADSVKGRFTISRDNSKNTLYLQMNSLRAEDTAVYYCAKDRLSVTVRPRYYGLDVWGQGTTVTVSS VL: DIVMTQSPLSLPVTPGEPASISCRSSQSLLYSNGYNYLDWYLQKSGQSPQLLIYLSSNRASGVPDRFSGSGSGTDFTLKISRVEAEDVGFYYCMQAFQAPYTFGQGTKLEIK"
  Relative Blockade of IL-13 Binding IC50: "1.14 relative to dupilumab"
